# Protocol details: inhibition of 3D7 malaria parasite growth – strain 3D7 (AID 2306);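 also: 0% = DMSO wells and 100% = chloroquine plus artemisinin control wells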
# Setup conditions: P. falciparum 3D7 erythrocytic growth, LDH absorbance, 72 h; at 2 µM; active compounds read high
We begin with a simple list: items and their reported growth inhibition.
Give the value in % but do not write % after it.

Use the examples below as a reference point.
CCCNC(=O)C1Cc2cc(OC)c(OC)cc2C2(N1)C(=O)N(Cc1cccc(OC)c1)c1ccccc12 (stereo not given)    91
O=C(Nc1cccc(CN2CCCN(Cc3ccc(O)cc3)CC2)c1)c1ccc2ccccc2n1    90
COc1ccc2nccc([C@@H](O)CN3CCC(NCc4ccc5c(c4)NC(=O)CS5)CC3)c2c1    102
Cc1cc(C(=O)Nc2ccc3c(c2)CCN3C2CCN(Cc3ccc(F)cc3Cl)C2)no1 (stereo not given)    95
C=CCOC(=O)N1CCC(CNCc2ccc(-c3cccc(-c4nc5ccc(F)cc5[nH]4)c3)cc2)C1 (stereo not given)    102
Cc1cc(N2CCC(NS(=O)(=O)c3ccc(F)cc3)CC2)nc(Nc2cccc(C#N)c2)n1    97

input: Can you look up the measured growth inhibition of `CCOc1ccc2nc(N(CCCn3ccnc3)C(=O)C=Cc3cccs3)sc2c1` for me?
output: 97

###

# Protocol details: antimalarial activity against Dd2 strain (AID 2302);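 also: 0% = DMSO untreated growth and 100% = chloroquine plus artemisinin killed control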
# Setup conditions: P. falciparum Dd2 in RBCs, LDH growth readout, 72 h; at 2 µM
Calls of active or inactive are those of the source.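 Rule for the calls: active = growth inhibition above 50% at the single 2 µM test dose, taken to imply half-maximal potency below 2 µM; inactive = the rest.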
Can you answer with just one of these options? y (active), n (inactive)

// known answers, use as guide
Nc1ccc(-c2ccc(NC(=O)Nc3cc(C(F)(F)F)ccc3F)cc2)cn1    n
CC(=O)N1CCC(C(=O)Nc2ccc(-c3cccc(-c4nc5ccc(C(F)(F)F)cc5[nH]4)c3)cc2)CC1    n
CCCc1cc(N2CCC(c3ccccc3)(N3CCCCC3)CC2)nc(Nc2ccc(OC)cc2)n1    n
Cc1ccc(-c2cc3nc4c(c(NCCCn5ccnc5)n3n2)CCC4)cc1    n
COc1ccc2nccc([C@@H](O)CN3CCC(NC(=O)c4ccc(Cl)c(OC)c4)CC3)c2c1    n

Continue with the next molecule.
input: Would you mind telling me which call this test gave `CC(C)(C)c1ccc2nc(-c3ccc(/C=C/C(=O)NCc4ccc(Cl)c(Cl)c4)cc3)[nH]c2c1` ?
output: n

###

# Protocol details: antimalarial activity against Dd2 strain (AID 2302);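 also: 0% = DMSO untreated growth and 100% = chloroquine plus artemisinin killed control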
# Setup conditions: P. falciparum Dd2 in RBCs, LDH growth readout, 72 h; at 2 µM; active compounds read high
Measurement label: growth inhibition (%)
Give the value in % but do not write % after it.

Use the examples below as a reference point.
Cc1ccccc1NC(=S)NC1CCN(CCCCCNC(=O)/C=C/c2ccc(Cl)c(Cl)c2)CC1    7
CN1CCN(c2ccc(Cl)cc2NC(=O)C2COc3ccccc3O2)CC1 (stereo not given)    44
COc1ccc2nccc([C@@H](O)CN3CCC(NCCOc4ccc(F)cc4[N+](=O)[O-])CC3)c2c1    92
O=C(Nc1ccc(N2CCN(Cc3ccccc3Cl)CC2)cc1)c1ccc([N+](=O)[O-])o1    67
NC(=NCCCCCCCCN=C(N)Nc1ccc(Cl)cc1)Nc1ccc(Cl)cc1    89
Cc1ccc2c(c1)C1(CC(=O)N(CCc3scnc3C)C1=O)C(=O)N2Cc1ccccc1 (stereo not given)    73

input: Can you look up the measured growth inhibition of `Oc1ccc2[nH]cc(C3CCN(CCCNCc4ccc(-c5ccccc5)cc4)CC3)c2c1` for me?
output: -1

input: Likewise for `COc1ccc(NC(=O)/C=C/c2ccccc2Cl)cc1OCCN1CCC(NCc2ccccc2)CC1` ?
output: 101

input: Likewise for `Nc1cc(-c2ccc3ccccc3c2)nc2ccccc12` ?
output: 52

input: Likewise for `O=C(Nc1cccc(-c2cccc(-c3nc4ccc(F)cc4[nH]3)c2)c1)c1csnn1` ?
output: 29

###

We begin with a simple list: items and their reported growth inhibition.
# Protocol details: inhibition of 3D7 malaria parasite growth – strain 3D7 (AID 2306);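 also: 0% = DMSO wells and 100% = chloroquine plus artemisinin control wells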
# Setup conditions: P. falciparum 3D7 erythrocytic growth, LDH absorbance, 72 h; at 2 µM; active compounds read high
Give the value in % but do not write % after it.

Use the examples below as a reference point.
CCCCNCc1ccc(OCc2cccc(COc3ccc(CNCCCC)cc3)c2)cc1    100
COCCCn1c(=N)c(C(=O)NCCc2ccc(OC)cc2)cc2c(=O)n3cccc(C)c3nc21    95
CN(C)Cc1ccc2nc(-c3cccc(Cc4cc(Cl)ccc4OCc4ccc(Cl)cc4F)n3)[nH]c2c1    93
COC(=O)c1cc(C(=O)CN(Cc2ccccc2)C(C)C)ccc1O    97

Next compound, growth inhibition to be filled in.
input: Can you look up the measured growth inhibition of `CC(C)CNCc1cccc(-c2cccc(CNc3ccc4ncccc4c3)c2)c1` for me?
output: 92

###

# Protocol details: antimalarial activity against Dd2 strain (AID 2302);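 also: 0% = DMSO untreated growth and 100% = chloroquine plus artemisinin killed control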
# Setup conditions: P. falciparum Dd2 in RBCs, LDH growth readout, 72 h; at 2 µM
Calls of active or inactive are those of the source.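 Rule for the calls: active = growth inhibition above 50% at the single 2 µM test dose, taken to imply half-maximal potency below 2 µM; inactive = the rest.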
Can you answer with just one of these options? yes = active, no = inactive

O=C(CN1CCC2(CCC1=O)CC(=O)c1ccccc1O2)NCCN1CCOCC1 (stereo not given)    no
CCC(C)CN1CCN(c2cc(NC(=O)c3cccs3)ccn2)C(C)C1 (stereo not given)    yes

input: Would you mind telling me which call this test gave `O=C(Nc1cccc(-c2nc3ccccc3s2)c1)c1ccccc1[N+](=O)[O-]` ?
output: no

input: Likewise for COc1ccc(Nc2nccc(N3CCC(NC(=O)Nc4ccc5c(c4)OCO5)C3)n2)cc1 (stereo not given) ?
output: yes

input: Likewise for CCCCCCCCNCC(O)c1cc(-c2ccc(Cl)cc2)nc2cc(C)ccc12 (stereo not given) ?
output: yes

input: Likewise for `Cc1cccc2[nH]c(-c3cccc(-c4cccc(NC(=O)c5cncn5C)c4)c3)nc12` ?
output: yes

input: Likewise for `COCCOC(=O)C(=O)c1c(-c2ccccc2)c(-c2ccc(OC)c(OC)c2)c2c3cc(OC)c(OC)cc3ccn12` ?
output: yes

input: Likewise for `COc1ccc(OC)c2c1C[C@@H]1NC[C@H]2c2c(OC)ccc(OC)c21` ?
output: no

input: Likewise for `COc1cc(Cc2cnc(N)nc2N)c2c(c1OC)OC(C)(C)C=C2` ?
output: no

###

# Protocol details: antimalarial activity against Dd2 strain (AID 2302);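 also: 0% = DMSO untreated growth and 100% = chloroquine plus artemisinin killed control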
# Setup conditions: P. falciparum Dd2 in RBCs, LDH growth readout, 72 h; at 2 µM
Calls of active or inactive are those of the source.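 Rule for the calls: active = growth inhibition above 50% at the single 2 µM test dose, taken to imply half-maximal potency below 2 µM; inactive = the rest.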
Can you answer with just one of these options? active, inactive

// known answers, use as guide
COc1ccc(CN2CCC(Oc3cccc(NC(=O)c4ccc(C(F)(F)F)cc4)c3)CC2)cc1    inactive
NC(=O)C1CCN(Cc2ccc(-c3ccc(-c4nc5ccc(C(F)(F)F)cc5[nH]4)s3)cc2)CC1    active
O=C1C(c2ccccc2)=C(Nc2ccc([N+](=O)[O-])cc2)c2ccccc21    active
Cc1cc2c3c(N)nc(N)nc3ccc2n1C(C)C    inactive

Continue with the next molecule.
input: Would you mind telling me which call this test gave `CCN1CCN(c2cc(C)c3cc(NC(=O)c4ccc(Br)o4)ccc3n2)CC1` ?
output: inactive

###

We begin with a simple list: items and their reported growth inhibition.
# Protocol details: antimalarial activity against Dd2 strain (AID 2302);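 also: 0% = DMSO untreated growth and 100% = chloroquine plus artemisinin killed control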
# Setup conditions: P. falciparum Dd2 in RBCs, LDH growth readout, 72 h; at 2 µM; active compounds read high
Give the value in % but do not write % after it.

Use the examples below as a reference point.
COC(=O)c1cccc(CNCc2cccc(-c3ccc(-c4nc5ccccc5[nH]4)cc3)c2)c1    51
CCCCCn1c(Sc2ccc(C#N)c([N+](=O)[O-])c2)nnc1-c1cc(OC)cc(OC)c1    24
CCN(CC)CCc1ccc2c(=O)cc(CCc3cccc(F)c3F)n(CC(=O)N(C)Cc3ccc(-c4ccc(C(F)(F)F)cc4)cc3)c2c1    45
c1ncc(CCNc2nc(Nc3ccc4c(c3)OCO4)nc(NC3CCCC3)n2)[nH]1    -3
COc1ccc2nccc(N3CCC(NCc4ccc5c(n4)NC(=O)CS5)CC3)c2n1    63

input: Can you look up the measured growth inhibition of `Cc1ccc(CNC(=O)[C@H](Cc2ccccc2)Nc2cc(C)nc(NCc3ccccc3C)n2)cc1` for me?
output: 50

input: Likewise for `COc1ccc(NC(=O)Nc2ccc(Nc3nc(C)cc(N4CCCC4)n3)cc2)cc1` ?
output: 100

input: Likewise for `CCOc1c(C)cc(C(F)(F)F)cc1CNCCCNc1cc(=O)c2ccccc2[nH]1` ?
output: 1

input: Likewise for CN1CCc2cc(I)c(O)cc2C1Cc1ccccc1Cl (stereo not given) ?
output: 96

input: Likewise for `O=C(NC(=S)NCc1ccncc1)c1ccccc1` ?
output: -3

###

# Protocol details: HepG2 cytotoxicity, primary screen, cytotoxicity control for P. falciparum antimalarial project, cell-based, ATP luminescence (AID 2303);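 also: 0% = DMSO wells and 100% = digitonin-killed cells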
# Setup conditions: HepG2 viability, 24-48 h, at 10 µM
The source made the active and inactive calls.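 Rule for the calls: active = inhibition above 50%; inactive = the rest.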
Can you answer with just one of these options? active, inactive

// known answers, use as guide
CCCc1nc2c(N3CC(NC(=O)/C=C/c4ccccc4)C3)cccc2n1C1CC1    inactive
CC[C@H](C)[C@@H](C(=O)N1CCOCC1)N1CC[C@H](NS(=O)(=O)CC(C)(C)c2ccc(Cl)cc2)C1=O    inactive
COc1ccc(CCn2c(=N)c(C(=O)NCc3cccnc3)cc3c(=O)n4ccccc4nc32)cc1    inactive
COc1ccc(CCN(C)CCCN2CCC(NC(=O)c3cccc4c(=O)c5ccccc5[nH]c34)CC2)cc1OC    inactive
Cc1ccccc1NC(=S)NC1CCN(CCCCCNC(=O)/C=C/c2ccc(Cl)c(Cl)c2)CC1    inactive

input: Would you mind telling me which call this test gave `CS(=O)(=O)c1ccccc1CNC(=O)c1cccc(-c2ccc(-c3nc4ccc(C(F)(F)F)cc4[nH]3)cc2)c1` ?
output: active

input: Likewise for `O=C(CCNc1ccnc(NCCc2ccccc2)n1)Nc1ccccc1` ?
output: inactive

input: Likewise for `CN(Cc1cccc(F)c1)C1CCN(c2cc(NC(=O)c3ccc(F)cc3)ccn2)CC1` ?
output: inactive

input: Likewise for `CN1Cc2cc(NC(=O)/C=C/c3ccccc3Cl)ccc2C(C)(C)C1` ?
output: inactive

input: Likewise for `COc1ccc(C=NNc2cc(C)nc3ccc(OC)cc23)c(OC)c1` ?
output: inactive
